Target: human NK1 (Homo sapiens, UniProt P25103)
Sequence (P25103 whole entry): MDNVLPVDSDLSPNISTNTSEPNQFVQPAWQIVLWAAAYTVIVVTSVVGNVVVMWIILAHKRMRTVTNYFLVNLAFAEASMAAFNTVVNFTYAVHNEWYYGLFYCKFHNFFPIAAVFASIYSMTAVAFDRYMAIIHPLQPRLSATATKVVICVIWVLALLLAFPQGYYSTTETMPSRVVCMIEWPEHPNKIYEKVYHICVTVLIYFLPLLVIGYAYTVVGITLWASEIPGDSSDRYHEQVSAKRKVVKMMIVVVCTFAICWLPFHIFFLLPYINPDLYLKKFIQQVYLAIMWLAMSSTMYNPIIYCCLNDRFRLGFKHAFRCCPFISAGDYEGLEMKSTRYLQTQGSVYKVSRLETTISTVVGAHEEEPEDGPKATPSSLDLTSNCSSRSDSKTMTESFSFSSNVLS
Experiment: Calcium mobilization functional assay, agonist mode, CHONK1 cells
Format: cell-based
Parameters: expressed in transfected cells; host or cells: CHO cells (gift of Prof. T. Costa, ISS, Rome)
Conditions: efficacy (intrinsic activity), Emax relative to SP; CHONK1 cells; N = 5; SEM
Where a SMILES comes first, the peptide text is derived from it. Bridges are numbered along the chain shown (N, C = ends). [ ]: non-standard residue; d: D form.
Measurement Name: NK1 α ± SEM
Lab note: record just the number, no unit beside it.

NK1 α ± SEM of CSCC[C@H](NC(=O)[C@H](CC(C)C)NC(=O)CNC(=O)[C@H](Cc1ccccc1)NC(=O)[C@@H]1CC(=O)NCCCC[C@@H](NC(=O)[C@@H](N)Cc2ccc(O)cc2)C(=O)N[C@@H](Cc2ccccc2)C(=O)N[C@@H](Cc2ccccc2)C(=O)N1)C(N)=O [compound 6] (H-Y[dK]FFDFGLM-NH2; lactam 2-5) , assay on human NK1 (Homo sapiens, UniProt P25103), is 1.03

###

Biological target: human NK1 (Homo sapiens, UniProt P25103)
Test: Calcium mobilization functional assay, agonist mode, CHONK1 cells
Type: cell-based
Design: expressed in transfected cells; host or cells: CHO cells (gift of Prof. T. Costa, ISS, Rome)
Conditions: efficacy (intrinsic activity), Emax relative to SP; CHONK1 cells; N = 5; SEM
Where a SMILES comes first, the peptide text is derived from it. Bridges are numbered along the chain shown (N, C = ends). [ ]: non-standard residue; d: D form.
Parameter: NK1 α ± SEM. Scope: all listed entries.
Lab note: record just the number, no unit beside it.

As a guide, the following entries are already answered.
Molecule	NK1 α ± SEM
CSCC[C@H](NC(=O)[C@H](CC(C)C)NC(=O)CNC(=O)[C@H](Cc1ccccc1)NC(=O)[C@H](Cc1ccccc1)NC(=O)[C@@H]1CC(=O)NCCCC[C@@H](NC(=O)[C@@H](N)Cc2ccc(O)cc2)C(=O)N[C@@H](Cc2ccccc2)C(=O)N[C@@H](Cc2ccccc2)C(=O)N1)C(N)=O [compound 5] (H-Y[dK]FFDFFGLM-NH2; lactam 2-5)	1.11
CSCC[C@H](NC(=O)[C@H](CC(C)C)NC(=O)CNC(=O)[C@H](Cc1ccccc1)NC(=O)[C@H](Cc1ccccc1)NC(=O)[C@H](CCC(N)=O)NC(=O)[C@@H]1CC(=O)NCCCC[C@@H](NC(=O)[C@@H](N)Cc2ccc(O)cc2)C(=O)N[C@@H](Cc2ccccc2)C(=O)N[C@@H](Cc2ccccc2)C(=O)N1)C(N)=O [compound 4] (H-Y[dK]FFDQFFGLM-NH2; lactam 2-5)	0.96

Please look at the following molecule next.
# NK1 α ± SEM (molecule: CSCC[C@H](NC(=O)[C@H](CC(C)C)NC(=O)CNC(=O)[C@@H]1CC(=O)NCCCC[C@@H](NC(=O)[C@@H](N)Cc2ccc(O)cc2)C(=O)N[C@@H](Cc2ccccc2)C(=O)N[C@@H](Cc2ccccc2)C(=O)N1)C(N)=O [compound 7, Tyr-[D-Lys-Phe-Phe-Asp]-Gly-Leu-Met-NH2] (H-Y[dK]FFDGLM-NH2; lactam 2-5) ) is 0.99

###

Target: human NK1 (Homo sapiens, UniProt P25103)
Test: Calcium mobilization functional assay, agonist mode, CHONK1 cells
Where a SMILES comes first, the peptide text is derived from it. Bridges are numbered along the chain shown (N, C = ends). [ ]: non-standard residue; d: D form.
Parameter: EC50. Scope: all listed entries.
I only need the number, in nM, no unit after it.

Compound	EC50 [nM]
CSCC[C@H](NC(=O)[C@H](CC(C)C)NC(=O)CNC(=O)[C@H](Cc1ccccc1)NC(=O)[C@H](Cc1ccccc1)NC(=O)[C@@H]1CC(=O)NCCCC[C@@H](NC(=O)[C@@H](N)Cc2ccc(O)cc2)C(=O)N[C@@H](Cc2ccccc2)C(=O)N[C@@H](Cc2ccccc2)C(=O)N1)C(N)=O [compound 5] (H-Y[dK]FFDFFGLM-NH2; lactam 2-5)	15.8

# EC50 (compound: CSCC[C@H](NC(=O)[C@H](CC(C)C)NC(=O)CNC(=O)[C@@H]1CC(=O)NCCCC[C@@H](NC(=O)[C@@H](N)Cc2ccc(O)cc2)C(=O)N[C@@H](Cc2ccccc2)C(=O)N[C@@H](Cc2ccccc2)C(=O)N1)C(N)=O [compound 7, Tyr-[D-Lys-Phe-Phe-Asp]-Gly-Leu-Met-NH2] (H-Y[dK]FFDGLM-NH2; lactam 2-5) ) is 2090

# EC50 (compound: CSCC[C@H](NC(=O)[C@H](CC(C)C)NC(=O)CNC(=O)[C@H](Cc1ccccc1)NC(=O)[C@H](Cc1ccccc1)NC(=O)[C@H](CCC(N)=O)NC(=O)[C@@H]1CC(=O)NCCCC[C@@H](NC(=O)[C@@H](N)Cc2ccc(O)cc2)C(=O)N[C@@H](Cc2ccccc2)C(=O)N[C@@H](Cc2ccccc2)C(=O)N1)C(N)=O [compound 4] (H-Y[dK]FFDQFFGLM-NH2; lactam 2-5) ) is 3.55

# EC50 (compound: CSCC[C@H](NC(=O)[C@H](CC(C)C)NC(=O)CNC(=O)[C@H](Cc1ccccc1)NC(=O)[C@@H]1CC(=O)NCCCC[C@@H](NC(=O)[C@@H](N)Cc2ccc(O)cc2)C(=O)N[C@@H](Cc2ccccc2)C(=O)N[C@@H](Cc2ccccc2)C(=O)N1)C(N)=O [compound 6] (H-Y[dK]FFDFGLM-NH2; lactam 2-5) ) is 776

###

Biological target: human opioid receptor DOR (Homo sapiens, UniProt P41143)
Sequence (P41143 whole entry): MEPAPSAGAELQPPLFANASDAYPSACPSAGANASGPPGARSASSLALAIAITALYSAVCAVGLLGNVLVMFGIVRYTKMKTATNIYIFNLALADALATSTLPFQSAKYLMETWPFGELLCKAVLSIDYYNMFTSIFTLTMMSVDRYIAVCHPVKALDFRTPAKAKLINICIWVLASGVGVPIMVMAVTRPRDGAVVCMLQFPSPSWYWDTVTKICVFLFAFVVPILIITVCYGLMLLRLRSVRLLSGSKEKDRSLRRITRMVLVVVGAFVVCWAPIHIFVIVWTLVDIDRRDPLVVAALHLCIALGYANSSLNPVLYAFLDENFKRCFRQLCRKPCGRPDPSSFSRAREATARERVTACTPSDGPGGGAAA
Test: Radioligand binding assay, displacement of [3H]deltorphin-2
Conditions: displacement of [3H]deltorphin-2 from membranes of CHO cells transfected with human DOR, 50 mM Tris/HCl pH 7.4, 0.5% BSA, peptidase inhibitors, 2 h at 25 °C, mean ± SEM, n ≥ 3
Where a SMILES comes first, the peptide text is derived from it. Bridges are numbered along the chain shown (N, C = ends). [ ]: non-standard residue; d: D form. Nle = CCCC[C@H](N)C(=O)O
Parameter: pKi. Scope: all listed entries.
When answering, recall that pKi equals minus log10 of the concentration in mol/L, and write that number alone.

Compound	Measurement Name	Experimental Value
CSCC[C@H](NC(=O)[C@H](CC(C)C)NC(=O)CNC(=O)[C@H](Cc1ccccc1)NC(=O)[C@H](Cc1ccccc1)NC(=O)[C@H](CCC(N)=O)NC(=O)[C@@H]1CC(=O)NCCCC[C@@H](NC(=O)[C@@H](N)Cc2ccc(O)cc2)C(=O)N[C@@H](Cc2ccccc2)C(=O)N[C@@H](Cc2ccccc2)C(=O)N1)C(N)=O [compound 4] (H-Y[dK]FFDQFFGLM-NH2; lactam 2-5)	pKi	6.65
CSCC[C@H](NC(=O)[C@H](CC(C)C)NC(=O)CNC(=O)[C@@H]1CC(=O)NCCCC[C@@H](NC(=O)[C@@H](N)Cc2ccc(O)cc2)C(=O)N[C@@H](Cc2ccccc2)C(=O)N[C@@H](Cc2ccccc2)C(=O)N1)C(N)=O [compound 7, Tyr-[D-Lys-Phe-Phe-Asp]-Gly-Leu-Met-NH2] (H-Y[dK]FFDGLM-NH2; lactam 2-5)	pKi	6.95
CCCC[C@H](NC(=O)[C@H](CC(C)C)NC(=O)[C@@H](Cc1c[nH]c2ccccc12)NC(=O)[C@H](Cc1ccccc1)NC(=O)[C@@H](Cc1c[nH]c2ccccc12)NC(=O)[C@H](CC(N)=O)NC(=O)[C@@H]1CC(=O)NCCCC[C@@H](NC(=O)[C@@H](N)Cc2ccc(O)cc2)C(=O)N[C@@H](Cc2ccccc2)C(=O)N[C@@H](Cc2ccccc2)C(=O)N1)C(N)=O [compound 2] (H-Y[dK]FFDN[dW]F[dW]L[Nle]-NH2; lactam 2-5)	pKi	6.70

# pKi (compound: CSCC[C@H](NC(=O)[C@H](CC(C)C)NC(=O)CNC(=O)[C@H](Cc1ccccc1)NC(=O)[C@@H]1CC(=O)NCCCC[C@@H](NC(=O)[C@@H](N)Cc2ccc(O)cc2)C(=O)N[C@@H](Cc2ccccc2)C(=O)N[C@@H](Cc2ccccc2)C(=O)N1)C(N)=O [compound 6] (H-Y[dK]FFDFGLM-NH2; lactam 2-5) ) is 7.54

###

Molecular target: human KOR (Homo sapiens)
Construct: expressed in transfected cells; host or cells: CHO cells (University of Ferrara), co-expressing Gαqi5
Sequence (P41145 whole entry): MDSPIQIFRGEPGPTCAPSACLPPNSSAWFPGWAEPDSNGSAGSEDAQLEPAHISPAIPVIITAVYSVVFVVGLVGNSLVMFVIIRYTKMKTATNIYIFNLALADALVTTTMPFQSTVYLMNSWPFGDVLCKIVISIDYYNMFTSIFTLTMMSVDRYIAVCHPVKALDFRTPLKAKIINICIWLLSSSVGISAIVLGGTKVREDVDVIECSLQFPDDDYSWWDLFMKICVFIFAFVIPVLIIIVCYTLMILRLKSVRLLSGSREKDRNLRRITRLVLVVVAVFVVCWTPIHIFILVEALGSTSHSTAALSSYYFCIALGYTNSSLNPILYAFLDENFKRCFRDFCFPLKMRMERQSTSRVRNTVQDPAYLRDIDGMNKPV
Test: Calcium mobilization functional assay, agonist mode
Type: cell-based
Details: CHO cells co-expressing human KOR and Gαqi5; Fluo-4 AM calcium signal; n = 5; read-out: KOR pEC50 (CL95%) (converted)
Where a SMILES comes first, the peptide text is derived from it. Bridges are numbered along the chain shown (N, C = ends). [ ]: non-standard residue; d: D form.
Parameter: EC50. Scope: all listed entries.
I only need the number, in nM, no unit after it.

Molecule	Experimental Value
NC(=O)[C@@H]1CC(=O)NCCCC[C@@H](NC(=O)[C@@H](N)Cc2ccc(O)cc2)C(=O)N[C@@H](Cc2ccccc2)C(=O)N[C@@H](Cc2ccccc2)C(=O)N1 [compound 1, Tyr-c[D-Lys-Phe-Phe-Asp]NH2] (H-Y[dK]FFD-NH2; lactam 2-5)	2.19

Please look at the following molecule next.
# EC50 (molecule: CSCC[C@H](NC(=O)[C@H](CC(C)C)NC(=O)CNC(=O)[C@H](Cc1ccccc1)NC(=O)[C@@H]1CC(=O)NCCCC[C@@H](NC(=O)[C@@H](N)Cc2ccc(O)cc2)C(=O)N[C@@H](Cc2ccccc2)C(=O)N[C@@H](Cc2ccccc2)C(=O)N1)C(N)=O [compound 6] (H-Y[dK]FFDFGLM-NH2; lactam 2-5) ) is 4.68
